Experiment: MTT cell viability assay
Type: cell-based, murine
Details: mouse, RAW264.7 macrophage cells
VALUE KIND: CC50 at 48 h (µM)
Expressed in µM, but write only the number.

Task: Endpoint output: CC50 at 48 h of "CC(=O)Oc1cccc2c1C(=O)c1c(OC(C)=O)cc(C(=O)O)cc1C2=O" . Value?
Result: 151

---

Tested on: IL-1β
Test: IL-1β production in LPS-stimulated RAW264.7 cells
Format: cell-based
Conditions: Mus musculus, RAW264.7, 48 h, read-out: IC50 IL-1β
VALUE KIND: pIC50
On this scale, pIC50 is minus log10 of a concentration expressed in M (mol/L).

Task: Requested field: pIC50. Item: "CC(=O)Oc1cccc2c1C(=O)c1c(OC(C)=O)cc(C(=O)O)cc1C2=O"
Result: 4.58
